experiment: TOX21_p53_BLA_p3_viability: Viability Assessment in the Tox21 HCT-116 p53 Agonism Beta-lactamase Assay, Phase 3 (AID 2283593);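 also: cells exposed to compound for 16 h before reading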
Records with an inconclusive call do not appear. Activity calls are given as the source filed them. The calls were made as follows: active = hit-call score of the fitted dose curve at least 0.9, where 1 is the maximum; inconclusive = response in the unintended direction; inactive = score below 0.9.
Lab note: assign the record to one of 1 (active), -1 (inactive)

Query block: Each compound tested received a call. Report the one for C[N+]1(C)CCC(OC(=O)C(O)(c2ccccc2)C2CCCC2)C1 (stereo unspecified) .
Result block: -1

Query block: Each compound tested received a call. Report the one for CCC(C)[O-].CCC(C)[O-].CCOC(=O)/C=C(/C)[O-].[Al+3] .
Result block: -1

Query block: Each compound tested received a call. Report the one for CSCC[C@H](NC(=O)[C@H](Cc1ccc(OS(=O)(=O)O)cc1)NC(=O)[C@@H](N)CC(=O)O)C(=O)NCC(=O)N[C@@H](Cc1c[nH]c2ccccc12)C(=O)N[C@@H](CCSC)C(=O)N[C@@H](CC(=O)O)C(=O)N[C@@H](Cc1ccccc1)C(N)=O .
Result block: -1

====

assay: TOX21_p53_BLA_p3_viability: Viability Assessment in the Tox21 HCT-116 p53 Agonism Beta-lactamase Assay, Phase 3 (AID 2283593);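 also: cells exposed to compound for 16 h before reading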
Inconclusive results are not listed. Activity calls are given as the source filed them. The calls were made as follows: active = hit-call score of the fitted dose curve at least 0.9, where 1 is the maximum; inconclusive = response in the unintended direction; inactive = score below 0.9.
Lab note: assign the record to one of label 1 (active), label 0 (inactive)

[
  {
    "molecule": "COC(=O)Nc1nc2ccc(Sc3ccccc3)cc2[nH]1",
    "label": "label 0"
  },
  {
    "molecule": "CC(C)(C)NCC(O)COc1ccc(NC(=O)NC2CCCCC2)cc1 (stereo unspecified)",
    "label": "label 0"
  },
  {
    "molecule": "O=C(CC(=O)C(F)(F)F)c1ccccc1",
    "label": "label 1"
  },
  {
    "molecule": "CN(C)CCOC(=O)COc1ccc(Cl)cc1",
    "label": "label 0"
  },
  {
    "molecule": "C=C(C)C(=O)OCCN(CC)CC",
    "label": "label 0"
  },
  {
    "molecule": "CC(C)(C)CC(C)(C)c1ccc(OCCO)cc1",
    "label": "label 0"
  }
]

Note: attention shifts to another entry.
Query block: Each molecule tested received a call. Report the one for Cc1nc(Nc2ncc(C(=O)Nc3c(C)cccc3Cl)s2)cc(N2CCN(CCO)CC2)n1 .
Result block: label 1

====

test: CCTE_Mundy_HCI_Cortical_NOG_NeuronCount: CCTE's Neurite Outgrowth Assay in rat cortical cells for Neuron Count, Mundy Lab (AID 2284236);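 also: neurons counted by imaging betaIII-tubulin and Hoechst stained cortical cells; cells exposed to compound for about 48 hours before fixation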
Results filed as inconclusive are left out. The source made the active and inactive calls. Rule for the calls: active = hit-call score of the fitted dose curve at least 0.9, where 1 is the maximum; inconclusive = response in the unintended direction; inactive = score below 0.9.
Lab note: assign the record to one of t for active, f for inactive

[
  {
    "compound": "CC(C)(C)NCC(O)c1cc(O)cc(O)c1 (centres undefined)",
    "label": "f"
  },
  {
    "compound": "CNCCC(Oc1ccc(C(F)(F)F)cc1)c1ccccc1 (centres undefined)",
    "label": "t"
  },
  {
    "compound": "C[C@@H]1C[C@H]2[C@@H]3CCC4=CC(=O)C=C[C@]4(C)[C@@]3(F)[C@@H](O)C[C@]2(C)[C@@]1(O)C(=O)CO",
    "label": "f"
  }
]

Note: attention shifts to another entry.
Query block: Each compound tested received a call. Report the one for CC1(C)S[C@@H]2[C@H](NC(=O)[C@H](N)c3ccc(O)cc3)C(=O)N2[C@H]1C(=O)O .
Result block: f
